Numbers sourced from patent US10851092B2.

- targetEntity: RET recombinant protein (RET-wild type) (Homo sapiens (Human))
- Sequence (P07949 29-1114): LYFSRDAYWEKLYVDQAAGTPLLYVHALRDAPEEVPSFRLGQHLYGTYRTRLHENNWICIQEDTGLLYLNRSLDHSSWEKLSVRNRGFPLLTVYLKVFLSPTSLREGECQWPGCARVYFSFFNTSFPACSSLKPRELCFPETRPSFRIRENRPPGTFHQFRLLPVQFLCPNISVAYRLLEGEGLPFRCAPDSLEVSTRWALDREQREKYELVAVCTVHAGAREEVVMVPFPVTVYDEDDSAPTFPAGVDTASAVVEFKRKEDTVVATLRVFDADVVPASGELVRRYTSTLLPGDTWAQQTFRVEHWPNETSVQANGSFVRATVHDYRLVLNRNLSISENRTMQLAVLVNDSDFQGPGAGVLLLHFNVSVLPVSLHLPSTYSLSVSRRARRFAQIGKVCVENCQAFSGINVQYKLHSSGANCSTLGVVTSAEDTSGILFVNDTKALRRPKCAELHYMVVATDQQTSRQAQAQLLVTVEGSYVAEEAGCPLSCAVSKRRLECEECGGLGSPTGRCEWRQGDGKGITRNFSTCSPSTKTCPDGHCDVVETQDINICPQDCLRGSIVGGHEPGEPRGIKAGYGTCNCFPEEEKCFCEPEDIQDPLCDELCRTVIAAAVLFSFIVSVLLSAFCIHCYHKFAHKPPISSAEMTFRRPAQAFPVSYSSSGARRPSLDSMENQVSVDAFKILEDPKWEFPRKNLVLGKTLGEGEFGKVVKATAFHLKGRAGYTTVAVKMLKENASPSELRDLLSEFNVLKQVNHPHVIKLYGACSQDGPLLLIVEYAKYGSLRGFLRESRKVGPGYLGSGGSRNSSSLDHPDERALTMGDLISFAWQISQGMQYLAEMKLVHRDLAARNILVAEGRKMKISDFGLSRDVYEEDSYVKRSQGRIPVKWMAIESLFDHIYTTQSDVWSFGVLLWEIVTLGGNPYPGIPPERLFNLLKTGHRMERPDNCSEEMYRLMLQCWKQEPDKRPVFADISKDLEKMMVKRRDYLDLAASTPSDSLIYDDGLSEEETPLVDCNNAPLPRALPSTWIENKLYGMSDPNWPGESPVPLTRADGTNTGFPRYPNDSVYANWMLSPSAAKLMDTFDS
- measurementProtocol: Evaluation of RET kinase inhibiting activity (cell-free system), mobility shift assay
- Type: biochemical
- testConditions: non-cell system; read-out: Biochemical assay (non-cell system) IC50 (nM) RET-WT
assayReadout: IC50 (nM)

P = COc1cc2cc(-c3ccc(CC(=O)Nc4cc(C(C)(C)C(F)(F)F)no4)cn3)cnc2cc1OC
Q = COc1cc2ncc(-c3cnc(CC(=O)Nc4cc(C(C)(C)C(F)(F)F)on4)c(F)c3)nc2cc1OC [Compound 229, reference compound]
QUERY: Param metric = IC50; output whichever of P , Q has the minimum value. Your choice should be expressed through its label.
RESULT: Q
(Q: 1.5 nM, P: 4.6 nM)

====

- targetEntity: KDR kinase (Homo sapiens (Human))
- Sequence (P35968 20-1356): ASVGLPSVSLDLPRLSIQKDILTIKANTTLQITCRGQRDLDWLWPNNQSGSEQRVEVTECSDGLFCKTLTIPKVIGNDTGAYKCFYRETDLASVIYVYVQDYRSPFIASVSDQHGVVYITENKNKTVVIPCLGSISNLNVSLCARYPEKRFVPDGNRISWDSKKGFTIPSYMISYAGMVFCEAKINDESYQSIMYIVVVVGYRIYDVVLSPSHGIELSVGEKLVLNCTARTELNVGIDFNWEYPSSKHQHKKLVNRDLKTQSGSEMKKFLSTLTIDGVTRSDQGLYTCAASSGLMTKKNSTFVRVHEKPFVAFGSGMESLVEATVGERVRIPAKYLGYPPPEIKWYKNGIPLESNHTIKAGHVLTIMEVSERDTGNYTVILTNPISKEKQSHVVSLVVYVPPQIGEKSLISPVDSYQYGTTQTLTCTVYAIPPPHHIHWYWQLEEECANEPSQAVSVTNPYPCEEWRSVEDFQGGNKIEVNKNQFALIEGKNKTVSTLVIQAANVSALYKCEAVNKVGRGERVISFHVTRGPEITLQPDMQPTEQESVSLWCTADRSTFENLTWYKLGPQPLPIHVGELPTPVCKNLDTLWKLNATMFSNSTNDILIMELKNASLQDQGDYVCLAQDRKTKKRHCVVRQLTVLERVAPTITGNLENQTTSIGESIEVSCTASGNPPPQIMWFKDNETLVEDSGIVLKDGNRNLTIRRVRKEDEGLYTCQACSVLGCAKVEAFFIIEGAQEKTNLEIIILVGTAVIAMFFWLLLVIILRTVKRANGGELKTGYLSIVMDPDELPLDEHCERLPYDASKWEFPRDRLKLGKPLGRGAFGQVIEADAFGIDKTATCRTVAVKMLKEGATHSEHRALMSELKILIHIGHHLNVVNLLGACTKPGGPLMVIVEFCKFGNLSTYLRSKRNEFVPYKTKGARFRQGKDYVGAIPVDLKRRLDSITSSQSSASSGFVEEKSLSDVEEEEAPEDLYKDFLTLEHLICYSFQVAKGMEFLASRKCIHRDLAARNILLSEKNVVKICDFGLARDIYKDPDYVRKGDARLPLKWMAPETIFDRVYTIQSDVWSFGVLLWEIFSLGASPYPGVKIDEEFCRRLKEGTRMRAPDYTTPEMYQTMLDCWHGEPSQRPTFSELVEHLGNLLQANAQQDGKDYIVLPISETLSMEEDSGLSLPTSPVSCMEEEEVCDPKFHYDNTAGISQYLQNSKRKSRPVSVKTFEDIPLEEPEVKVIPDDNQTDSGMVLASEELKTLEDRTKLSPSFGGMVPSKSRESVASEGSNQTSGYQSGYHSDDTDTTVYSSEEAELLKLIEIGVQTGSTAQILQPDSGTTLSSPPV
- measurementProtocol: Evaluation of KDR kinase inhibiting activity (cell system), HUVEC, AlphaLISA
- Assay type: cell-based
- testConditions: cell system; Form: Mesylate; read-out: IC50 (nM) KDR
- Method: HUVEC cells were seeded on a plate at a cell density of 1500 cells per well, and then cultured overnight. The test compound (10 uM, 2.5 uM, 625 nM, 156 nM, […], 10 nM, 2.5 nM, or 0.6 nM) was added to each well, followed by culturing the obtained mixture for 2 hours. […] The mixture thus obtained was reacted at room temperature overnight, and thereafter, a KDR kinase inhibiting activity rate was measured using Envision (Perkin Elmer). […]
assayReadout: IC50 (nM)

1 = COc1cc2cc(-c3ccc(CC(=O)Nc4cc(C(C)(C)C(F)(F)F)on4)cn3)cnc2cc1OC [Example 2, Methanesulfonate]
2 = COc1cc2cc(-c3ccc(CC(=O)Nc4cc(C(C)(C)C(F)(F)F)no4)cn3)cnc2cc1OC [Example 4, Methanesulfonate]
3 = COc1cc2cc(-c3ccc(CC(=O)Nc4cc(C(C)(C)C(F)(F)F)n[nH]4)cn3)cnc2cc1OC [Example 6, Methanesulfonate]
QUERY: Could you put the items above in increasing order of their IC50? Your task in answering is to list the labels in the requested order.
RESULT: 2, 3, 1
(2: 287 nM, 3: 566 nM, 1: 828 nM)

====

- targetEntity: KDR kinase (Homo sapiens (Human))
- measurementProtocol: Evaluation of KDR kinase inhibiting activity (cell system), HUVEC, AlphaLISA
- Assay type: cell-based
- testConditions: cell system; comparator compounds; Form: Mesylate; read-out: IC50 (nM) KDR
assayReadout: IC50 (nM)
// return numeric value only (unit: nM, not printed)

Value of IC50 reported for the molecule COc1cc2cc(-c3ccc(CC(=O)Nc4cc(C(C)(C)C(F)(F)F)no4)cc3)cnc2cc1OC [Ref Ex. 1, reference compound] is 7

====

- targetEntity: RET-V804L (Homo sapiens (Human), UniProt P07949, V804L)
- Sequence (P07949 29-1114 V804L): as the sequence (P07949 29-1114) above, with V776L counted along it
- measurementProtocol: Evaluation of RET kinase inhibiting activity (cell system), Ba/F3 cells overexpressing RET (V804L) mutant
- Assay type: cell-based
- testConditions: Ba/F3, compound 2 hours
assayReadout: IC50 (nM)

[
  {
    "molecule": "COc1cc2cc(-c3ccc(CC(=O)Nc4cc(C(C)(C)C(F)(F)F)no4)cn3)cnc2cc1OC [Example 3]",
    "unitSpec": "nM",
    "IC50": 15
  },
  {
    "molecule": "COc1cc2cc(-c3ccc(CC(=O)Nc4cc(C(C)(C)C(F)(F)F)n[nH]4)cn3)cnc2cc1OC [Example 5]",
    "unitSpec": "nM",
    "IC50": 15
  }
]

====

- targetEntity: KDR kinase (Homo sapiens (Human))
- measurementProtocol: Evaluation of KDR kinase inhibiting activity (cell system), HUVEC, AlphaLISA
- Assay type: cell-based
- testConditions: KDR, HUVEC cells, VEGF165 50 ng/ml, compound 2 hours; read-out: IC50
pIC50: −log10 of the molar value.
assayReadout: pIC50

a = COc1cc2cc(-c3ccc(CC(=O)Nc4cc(C(C)(C)C(F)(F)F)n[nH]4)cn3)cnc2cc1OC [Example 6, Methanesulfonate]
b = COc1cc2cc(-c3ccc(CC(=O)Nc4cc(C(C)(C)C(F)(F)F)no4)cn3)cnc2cc1OC [Example 4, Methanesulfonate]
QUERY: Between a and b , whose recorded pIC50 is greater? Kindly state the label of the option you pick.
RESULT: b
(b: 6.53, a: 6.25)

====

- targetEntity: RET recombinant protein (RET-wild type) (Homo sapiens (Human))
- measurementProtocol: Evaluation of RET kinase inhibiting activity (cell-free system), mobility shift assay
- Format: biochemical
- testConditions: cell-free system, ATP 1 mM; read-out: RET-wild type IC50
pIC50: −log10 of the molar value.
assayReadout: pIC50

P = COc1cc2cc(-c3ccc(CC(=O)Nc4cc(C(C)(C)C(F)(F)F)n[nH]4)cn3)cnc2cc1OC
Q = COc1cc2cc(-c3ccc(CC(=O)Nc4cc(C(C)(C)C(F)(F)F)no4)cn3)cnc2cc1OC
QUERY: Which has the higher pIC50, P or Q ? Reply briefly: the label of your chosen item.
RESULT: P
(P: 8.66, Q: 8.34)
